The reported measurements were obtained from PubChem BioAssay AID1918936.

- System: 349418-098-R-PDC complex spheroid viability;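 also: spheroids exposed to agents for seven days before readout; 100% = DMSO vehicle control wells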
- Test Description: Anticancer human tumor 349418-098-R-PDC patient-derived lung adenocarcinoma cell line growth inhibition
- Test Parameters: second compound 1 µM; first compound 0.0316 µM; hits give low values
Measured Quantity: viability, T/C (%)
All answers are understood in %, so give the number only.

Completed entries (count: 4):
CC1COCCN1c1cc(-c2ccnn2C)c2ccnc(-c3ccn[nH]3)c2n1 (stereo not given) + NC1CC1c1ccc(-c2cccc(O)c2)cc1: 8.57
CC1COCCN1c1cc(-c2ccnn2C)c2ccnc(-c3ccn[nH]3)c2n1 (stereo not given) + NC1CCC(NC2CC2c2ccccc2)CC1: 16.6
O=C(c1cc(Cc2n[nH]c(=O)c3ccccc23)ccc1F)N1CCN(C(=O)C2CC2)CC1 + NC1CCC(NC2CC2c2ccccc2)CC1: 106
COc1ccc([C@@H](O)c2cc(-c3ncnc4cc(N5CCOCC5)ccc34)c(F)cc2Cl)nn1 + NC1CC1c1ccc(-c2cccc(O)c2)cc1: 106

Turning to the following compound.
Task: Return viability, T/C for the following compound: O=C(C=Cn1cnc(-c2cc(C(F)(F)F)cc(C(F)(F)F)c2)n1)NNc1cnccn1 + NC1CCC(NC2CC2c2ccccc2)CC1
Output: 6.23
